target: Galanin receptor type 2 (Homo sapiens, UniProt O43603); test: Displacement of [125I]galanin from GalR2 by gamma counting
Metric Name: IC50 (nM)

# Smi, Assayed Target, IC50, nM
data = [
    ("COc1ccc(Nc2cc(N3CCCCC3)nc(N3CCCN(c4ncccc4C(F)(F)F)CC3)n2)cc1F", "Galanin receptor type 2 (Homo sapiens, UniProt O43603)", 2030),
]

P = FC(F)Oc1ccc(Nc2cc(Nc3ccccc3)nc(N3CCCCC3)n2)cc1
Q = Cc1ccc(C)c(Nc2cc(N3CCCCC3)nc(N3CCCN(c4ncccc4C(F)(F)F)CC3)n2)c1
Identify the entry with the larger IC50. Options: P and Q Kindly state the label of the option you pick.
P
(P: 3380 nM, Q: 2080 nM)

---

Target: Galanin receptor type 2 (Homo sapiens, UniProt O43603)
Sequence (O43603 whole entry): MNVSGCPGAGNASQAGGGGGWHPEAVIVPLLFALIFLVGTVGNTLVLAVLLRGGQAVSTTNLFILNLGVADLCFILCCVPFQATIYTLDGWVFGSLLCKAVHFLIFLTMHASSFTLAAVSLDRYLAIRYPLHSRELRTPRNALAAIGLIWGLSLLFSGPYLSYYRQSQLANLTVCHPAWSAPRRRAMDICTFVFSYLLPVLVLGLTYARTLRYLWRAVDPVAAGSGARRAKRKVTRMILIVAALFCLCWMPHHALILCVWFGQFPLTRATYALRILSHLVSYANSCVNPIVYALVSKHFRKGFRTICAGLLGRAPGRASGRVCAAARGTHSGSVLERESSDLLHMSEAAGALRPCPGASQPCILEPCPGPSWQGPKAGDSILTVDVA
Assay: Displacement of [125I]galanin from GalR2 by gamma counting
Metric Name: IC50 (nM)

Reference set (2 entries):
# Smi, Assayed Target, Test Value
measured = [
    ("COc1ccc(Nc2nc(Nc3cccc(OC(F)F)c3)cc(N3CCCCC3)n2)cc1", "Galanin receptor type 2 (Homo sapiens, UniProt O43603)", 540),
    ("COc1ccc(Nc2cc(Nc3ccccc3)nc(N3CCCCC3)n2)cc1", "Galanin receptor type 2 (Homo sapiens, UniProt O43603)", 1090),
]

a = c1ccc(Nc2cc(NCc3ccc4c(c3)OCO4)nc(N3CCCCC3)n2)cc1
b = COc1ccc(Nc2nc(Nc3cccc(F)c3C)cc(N3CCCCC3)n2)cc1
c = COc1ccc(Nc2cc(Nc3ccc(OC(F)(F)F)cc3)nc(NC3CCCCC3)n2)cc1
Please give the order of these molecules when sorted by IC50, largest value leading. Reply format: the labels, ordered as requested.
a, c, b
(a: 3690 nM, c: 1060 nM, b: 380 nM)

---

target: Galanin receptor type 2 (Homo sapiens); test: Displacement of [125I]galanin from GalR2 by gamma counting
pIC50: −log10 of the molar value.
Metric Name: pIC50

Study these solved cases before continuing.
# Smi, Metric Name, Test Value
records = [
    ("COc1ccc(Nc2nc(NCc3cccc(C(F)(F)F)c3)cc(N3CCCCC3)n2)cc1", "pIC50", 5.71),
    ("COc1ccc(Nc2cc(Nc3ccc(OC(F)F)cc3)nc(NC3CCCCC3)n2)cc1", "pIC50", 4.90),
    ("COc1ccc(Nc2cc(Nc3ccccc3)nc(N3CCCCC3)n2)cc1F", "pIC50", 5.06),
]

A = FC(F)Oc1cccc(Nc2cc(Nc3ccccc3)nc(N3CCCCC3)n2)c1
B = COc1ccc(Nc2nc(Nc3ccc(F)cc3C)cc(N3CCCCC3)n2)cc1
C = COc1ccc(Nc2nc(Nc3ccc(OC)c(F)c3)cc(N3CCN(c4ccccc4)CC3)n2)cc1
Falling order of pIC50, please. State the ranking by listing the labels in the requested order.
B, A, C
(B: 6.01, A: 5.38, C: 4.60)
